Task for the reader: assign each of the following compounds its reported phenotypically active.
# System: WPMY1-TUBA1B-RELA
# METHOD NOTES: phenotypically active (imaging signature differs from DMSO and reproducible) at any of 0.3-9 uM (binary (1 = active, 0 = inactive)); higher = active
# ASSAY CONTEXT: treatment time: 24 h
Counter-ions that a name gives are not always drawn.
Numbers only.

Answered cases to consult:
COMPOUND	EXPERIMENTAL SYSTEM	READING
C=CCc1ccccc1OC[C@@H](O)CNC(C)C [Alprenolol hydrochloride]	WPMY1-TUBA1B-RELA	0
Nc1ccc(O)c(C(=O)O)c1 [mesalazine]	WPMY1-TUBA1B-RELA	0
NS(=O)(=O)c1nn2cc(-c3ccccc3)nc2s1	WPMY1-TUBA1B-RELA	1
NCCCCNS(=O)(=O)c1ccc2c(Cl)cccc2c1 [W-13 hydrochloride]	WPMY1-TUBA1B-RELA	1
COc1ccc(C[C@H](C)NC[C@@H](O)c2ccc(O)c(NC=O)c2)cc1 [formoterol]	WPMY1-TUBA1B-RELA	0
COc1cc2c(cc1OC)-c1c/c(=N/c3c(C)cc(C)cc3C)n(C)c(=O)n1CC2 [Trequinsin hydrochloride]	WPMY1-TUBA1B-RELA	1
N[C@@H](C(=O)O)c1ccc(C(=O)O)c(C(=O)O)c1	WPMY1-TUBA1B-RELA	0
C[C@H]1O[C@H](O[C@H]2[C@H](O)[C@@H](O)[C@@H](O[C@H]3[C@H](O)[C@@H](O)[C@H](O)O[C@@H]3CO)O[C@@H]2CO)[C@H](O)[C@@H](O)[C@@H]1N[C@H]1C=C(CO)[C@@H](O)[C@H](O)[C@H]1O [Acarbose]	WPMY1-TUBA1B-RELA	0
O=C(CCCCCCC(=O)Nc1ccc([C@H]2O[C@@H](CSc3nc(-c4ccccc4)c(-c4ccccc4)o3)C[C@@H](c3ccc(CO)cc3)O2)cc1)NO [Tubacin]	WPMY1-TUBA1B-RELA	1
CCN(CC)CCNc1ccc(CO)c2sc3ccccc3c(=O)c12 [hycanthone]	WPMY1-TUBA1B-RELA	1

// for each compound in input: emit phenotypically active
1. O=C1CCc2cc(OCCCCc3nnnn3C3CCCCC3)ccc2N1 [Cilostazol]
2. C[C@@H]1O[C@@H](O[C@H]2C(=O)c3c(O)cc(O)cc3O[C@@H]2c2ccc(O)c(O)c2)[C@H](O)[C@H](O)[C@H]1O [Astilbin]
3. COc1cc2ncnc(Oc3cccc(NC(=O)Nc4cc(C(C)(C)C(F)(F)F)on4)c3)c2cc1OC

Resp:
1. 0
2. 0
3. 0

* * *

# System: HepG2-GM130-SQSTM1
# METHOD NOTES: phenotypically active (imaging signature differs from DMSO and reproducible) at any of 0.3-9 uM (binary (1 = active, 0 = inactive)); higher = active
# ASSAY CONTEXT: treatment time: 24 h
Task for the reader: assign each of the following molecules its reported phenotypically active.

Answered cases to consult:
> print(dat)
                                   molecule  experimental.system       reading
1  C(=C/c1ccccc1)/CN1CCN(C(c2ccccc2)c2ccccc2)CC1   HepG2-GM130-SQSTM1  0 (inactive)
2  Cc1c(NC(=O)OC[C@@H]2COCCN2)cn2ncnc(Nc3ccc4c(cnn4Cc4cccc(F)c4)c3)c12   HepG2-GM130-SQSTM1    1 (active)
3  COc1cc2nc(-c3cc(F)ccc3O)nc(N[C@@H]3CNC[C@H]3C(C)(C)O)c2cc1OC   HepG2-GM130-SQSTM1    1 (active)

// for each molecule in input: emit phenotypically active
1. CCOc1ccccc1OCCN[C@H](C)Cc1ccc(OC)c(S(N)(=O)=O)c1
2. N#Cc1ccccc1OCC(O)CNCCNC(=O)Nc1ccccc1 (stereo not given)
3. N=C(N)NC(=N)NCCc1ccccc1
4. COc1ccc2c(c1)N(C(C)=O)[C@H]1[C@@H]3CO[C@H](C)[C@@H]4CN5CC[C@]21[C@@H]5C[C@H]34
5. COc1cc(NC(=O)c2cccc(-n3cc(NC(=O)Nc4cccc(C)c4)cn3)c2)cc(OC)c1OC
6. COc1ccc(-c2cc3c(C)nc(N)nc3n([C@H]3CC[C@H](OCCO)CC3)c2=O)cn1

Resp:
0 (inactive)
0 (inactive)
0 (inactive)
0 (inactive)
0 (inactive)
1 (active)
